Known normalized growth of a selection of molecules
- assayProtocol: chemical genetic growth profiling, strain panel (AID 1159580);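 note: tested at 20 µM; growth read once vehicle control cultures reached saturation at 30 °C; 1 = growth at the plate median or of vehicle wells; lower values mean less growth of the strain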
- reportedConditions: S. cerevisiae deletion strains, growth OD, locus YOR265W, strain rbl2, active compounds read low
Screen size: about 5,500 compounds; about 2,000 (36%) were called active. Roughly 18% stayed inconclusive and do not appear here. The list shows a part of the results.
quantity: normalized growth

molecule | resultValue
COC1CC(OC2CCC3(C)C(CCC4C3CCC3(C)C(C5=CC(=O)OC5)C(OC(C)=O)CC43O)C2)OC(C)C1O (configuration not stated) | 1.01
COC1C(O)C(O[C@H]2CC[C@]3(C=O)C4C(CC[C@]3(O)C2)[C@@]2(O)CC[C@H](C3=CC(=O)OC3)[C@@]2(C)C[C@H]4OC(C)=O)OC(C)C1OC(C)=O (some centres not stated) | 0.993
CC1=CC(=O)C2C(C)(C)CCC[C@]2(C)[C@@]1(O)CCc1ccoc1 (some centres not stated) | 1.02
CC(C)C[C@@H](NC(=O)OCC1c2ccccc2-c2ccccc21)C(=O)O | 1
CCc1ccc2c(O)c3c(cc2c1C(=O)OC)C(=O)c1c(O)ccc(O)c1C3=O | 0.987
Nc1ccc(S(=O)(=O)Nc2ncccn2)cc1 | 1.02
COC1=CC(=O)C=C(OC)C1=O | 0.994
Cc1c(OCC(F)(F)F)ccnc1CS(=O)c1nc2ccccc2[nH]1 (configuration not stated) | 1.02
C[C@H]1O[C@@H](O[C@H]2[C@@H](O)C[C@H](O[C@H]3[C@@H](O)C[C@H](O[C@H]4CC[C@]5(C)C6CC[C@]7(C)[C@@H](C8=CC(=O)OC8)CC[C@]7(O)C6CC[C@@H]5C4)O[C@@H]3C)O[C@@H]2C)C[C@H](O)[C@@H]1O (some centres not stated) | 0.988
CC1=C2C(O)C(=O)OC3CC4C(C)(C)C(=O)C=C[C@]4(C)C(CC1)[C@]23C (some centres not stated) | 1
COc1cc(O)c2c(=O)cc(-c3ccc(OC)c(-c4c(O)cc(O)c5c(=O)cc(-c6ccc(O)cc6)oc45)c3)oc2c1 | 0.999
NCC(O)CC(=O)O (configuration not stated) | 0.989
CCn1nc(C(=O)O)c(=O)c2cc3c(cc21)OCO3 | 1
C=CCSC[C@@H](N)C(=O)O | 0.996
COc1ccccc1N1CCN(CCCNc2cc(=O)n(C)c(=O)n2C)CC1 | 1.01
Nc1nc(/C(=C/CC(=O)O)C(=O)N[C@@H]2C(=O)N3C(C(=O)O)=CCS[C@H]23)cs1 | 1.01
O=C(O)c1ccccc1O | 0.976

====

Known normalized growth of a selection of compounds
- assayProtocol: chemical genetic growth profiling, strain panel (AID 1159580);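 note: tested at 20 µM; growth read once vehicle control cultures reached saturation at 30 °C; 1 = growth at the plate median or of vehicle wells; lower values mean less growth of the strain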
- reportedConditions: S. cerevisiae deletion strains, growth OD, locus YJL134W, strain LCB3, active compounds read low
Among all 5,500 compounds or so, about 2,000 (36%) were called active. Another 18% or so got no clear call; they are omitted. Some of the results follow.
quantity: normalized growth

compound | resultValue
CCC(=O)OCC(=O)C1(OC(=O)CC)C(C)CC2C3CCC4=CC(=O)C=CC4(C)C3(Cl)C(O)CC21C (configuration not stated) | 1.01
COc1cc(O)c2c(=O)cc(-c3ccc(OC)c(-c4c(O)cc(O)c5c(=O)cc(-c6ccc(O)cc6)oc45)c3)oc2c1 | 0.984
Cc1c(C(N)=O)cc([N+](=O)[O-])cc1[N+](=O)[O-] | 0.991
COC1=CC(C)[C@@H]2C[C@H]3OC(=O)C[C@H]4C(C)=C(OC)C(=O)C([C@@]34C)[C@@]2(C)C1=O (some centres not stated) | 1.01
COc1ccc(-c2cc(=O)c3c(O)cc(O)cc3o2)cc1 | 1
COc1ccc(-c2cc(=O)c3c(O)c(OC)c(OC)cc3o2)cc1O | 0.998
CCc1ccc2c(O)c3c(cc2c1C(=O)OC)C(=O)c1c(O)ccc(O)c1C3=O | 0.99

====

Known normalized growth of a selection of compounds
- assayProtocol: chemical genetic growth profiling, strain panel (AID 1159580);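 note: tested at 20 µM; growth read once vehicle control cultures reached saturation at 30 °C; 1 = growth at the plate median or of vehicle wells; lower values mean less growth of the strain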
- reportedConditions: S. cerevisiae deletion strains, growth OD, locus YBR231C, strain swc5, active compounds read low
In all, about 5,500 compounds went through this assay and about 2,000 (36%) were called active. Another 18% or so got no clear call; they are omitted. The list shows a part of the results.

compound | normalized growth
Cc1ccccc1N1C(=O)c2cc(S(N)(=O)=O)c(Cl)cc2NC1C (configuration not stated) | 0.987
COC(=O)NC(=S)Nc1ccccc1NC(=S)NC(=O)OC | 1
COC1C(O)C(O[C@H]2CC[C@]3(C=O)C4C(CC[C@]3(O)C2)[C@@]2(O)CC[C@H](C3=CC(=O)OC3)[C@@]2(C)C[C@H]4OC(C)=O)OC(C)C1OC(C)=O (some centres not stated) | 1
C[C@H]1O[C@@H](O[C@H]2[C@@H](O)C[C@H](O[C@H]3[C@@H](O)C[C@H](O[C@H]4CC[C@]5(C)C6CC[C@]7(C)[C@@H](C8=CC(=O)OC8)CC[C@]7(O)C6CC[C@@H]5C4)O[C@@H]3C)O[C@@H]2C)C[C@H](O)[C@@H]1O (some centres not stated) | 0.979
C[C@@H]1CC[C@@]23CCC4(C)[C@@](C=CC5[C@@]6(C)CCC(=O)C(C)(C)C6CC[C@]54C)(OC2=O)C3[C@H]1C (some centres not stated) | 1.01
O=C(O)CCc1nc(-c2ccccc2)c(-c2ccccc2)o1 | 0.96
COC(=O)CC1C(C)(C)C(OC(C)=O)[C@@H]2[C@@H](OC(C)=O)[C@]34O[C@@]2(O)[C@]1(C)C3CC[C@]1(C)C4=CC(=O)O[C@H]1c1ccoc1 (some centres not stated) | 1.01
